Please respond with reported tlast (time to last quantifiable concentration) for every item in the list.
Assay: Plasma pharmacokinetics after single oral dose of Δ8-THCV in MCT oil (LC-MS/MS, non-compartmental analysis)
Assay type: in vivo, human
Details: 25 mg single oral Δ8-THCV in MCT oil; plasma; Mean (±SD)
Experimental: The study was a two-phase, dose-ranging, placebo-controlled trial in 21 healthy participants to assess the safety, tolerability, PK, and PD of an oral formulation of Δ8-THCV. A detailed description of the study was published elsewhere. […] Plasma samples were analyzed using a validated high-performance liquid chromatography–tandem mass spectrometry (LC-MS/MS) assay. […] For the PK analysis, concentrations below the lower limit of quantification were set to 0 ng/mL. […]

// field: tlast (time to last quantifiable concentration); key: CCCc1cc(O)c2c(c1)OC(C)(C)[C@@H]1CCC(C(=O)O)=C[C@@H]21 [Δ9-THCV-COOH, 11-nor-9-carboxy-Δ9-THCV] ; value = 7.6 (±1.2)

// field: tlast (time to last quantifiable concentration); key: CCCc1cc(O)c2c(c1)OC(C)(C)[C@@H]1CC=C(C)C[C@@H]21 [Δ8-THCV, Δ8-tetrahydrocannabivarin] ; value = 6.3 (±1.9)

// field: tlast (time to last quantifiable concentration); key: CCCc1cc(O)c2c(c1)OC(C)(C)[C@@H]1CC=C(CO)C[C@@H]21 (racemic) [11-OH-Δ8-THCV, (±)-11-hydroxy-Δ8-THCV] ; value = 4.3 (±1.8)

// field: tlast (time to last quantifiable concentration); key: CCCc1cc(O)c2c(c1)OC(C)(C)[C@@H]1CC=C(C(=O)O)C[C@@H]21 [Δ8-THCV-COOH, 11-nor-9-carboxy-Δ8-THCV] ; value = 8 (±0)

// data source = paper PMC11676667
